- measurement_description: Cytotoxicity assay in HEp-2 cells
- Type: cell-based
- protocol_conditions: human, uninfected HEp-2 cells, CellTiter Glo
endpoint_name: CC50 at 4 days

Study these solved cases before continuing.
[
  {
    "compound": "CCOC(=O)[C@H](C)NP(=O)(OC[C@@]1(N=[N+]=[N-])O[C@@H](c2csc3c(N)ncnc23)[C@H](F)[C@@H]1O)Oc1ccccc1 (stereo partly shown)",
    "recorded_measurement": "> 50 µM"
  },
  {
    "compound": "N#C[C@]1(CO)O[C@@H](c2csc3c(N)ncnc23)[C@H](O)[C@@H]1O",
    "recorded_measurement": "> 50 µM"
  },
  {
    "compound": "[N-]=[N+]=N[C@]1(CO)O[C@@H](c2csc3c(N)ncnc23)[C@H](Cl)[C@@H]1O",
    "recorded_measurement": "> 93 µM"
  }
]

Pending compound:
**Query** Using the record for "[N-]=[N+]=N[C@]1(CO)O[C@@H](c2csc3c(N)ncnc23)[C@H](F)[C@@H]1O" , state its measured CC50 at 4 days.
**Result** > 100 µM

Entry source: patent US10179794B2
